# Tested system: T1, recombinant, soluble human ASGR-1 (human, UniProt P07306 62-291)
# T1 construct: biotinylated in the binning assay; also called soluble huASGR-1; Soluble ASGR-1 (Amgen)
# T1 sequence: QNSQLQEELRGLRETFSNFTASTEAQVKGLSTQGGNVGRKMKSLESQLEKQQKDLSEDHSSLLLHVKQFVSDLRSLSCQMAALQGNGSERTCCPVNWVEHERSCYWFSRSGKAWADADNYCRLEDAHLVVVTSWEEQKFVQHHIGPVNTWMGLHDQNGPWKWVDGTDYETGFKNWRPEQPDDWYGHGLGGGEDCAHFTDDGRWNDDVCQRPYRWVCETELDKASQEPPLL
# Procedure summary: Octet BLI dissociation, pH 7.4 minus calcium
# Method: The relative dissociation of ASGR-1 from antibodies was measured using a label-free assay on an OctetHTX instrument (Fortebio). Antibody samples were captured on anti-HuFc kinetic biosensors (ForteBio cat #18-5064) at 5 ug/mL in assay buffer (10 mM Tris, 0.1% Triton, 150 mM NaCl, 1 mg/mL BSA, 1 mM CaCl2, pH7.4) for three minutes. […] Soluble ASGR-1 (Amgen) at 6 ug/ml in assay buffer was added and association to the antibodies was monitored for two minutes. […]
Readout label: % Change Compared to pH 7.4 + Calcium (%)
# number only, unit % dropped from output

Answered examples (4):
* 198B9 (antibody, V domains shown, hybridoma mAb) VH: QVQLVESGGGVVQPGRSLRLSCAASGFTFSNYGMHWVRQAPGKGLEWVAIIWFDGSNKYYVDSVKGRFTISRDNSKNTLFLQMSSLRAEDTAVYYCAREWLQFRYYYGMDVWGQGTTVTVSS VL: DIQMTQSPSSLSASVGDRVTITCRASQGIRKDLGWYQQKPGKAPKRLIYAASSLQSGVPSRFSGSGSGTEFTLTISSLQPEDFATYVCLQHYRYPFTFGPGTKVDFK | 3
* 48B12 (antibody, V domains shown, hybridoma mAb) VH: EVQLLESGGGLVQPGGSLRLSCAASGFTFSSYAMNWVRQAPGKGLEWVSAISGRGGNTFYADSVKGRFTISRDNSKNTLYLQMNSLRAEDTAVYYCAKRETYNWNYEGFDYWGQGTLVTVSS VL: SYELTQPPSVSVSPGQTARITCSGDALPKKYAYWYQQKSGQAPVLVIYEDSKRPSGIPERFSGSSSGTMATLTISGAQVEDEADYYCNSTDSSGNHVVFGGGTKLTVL | 4
* 179C2 (antibody, V domains shown, hybridoma mAb) VH: QVQLVESGGGVVQPGRSLRLSCAASGFTFSSYGMHWVRQAPGKGLEWVALIFYDGSNKYYADSVKGRFTISRDNSKNTLFLQMNSLRAEDTAVYYCARRYSGSWSGGMDVWGQGTTVTVSS VL: DIVMTQTPLSLSVTPGQPASISCKSSQSLLHSEGKTYLYWYLQKPGQPPQLLIYEVSHRFSGVPDRFSGSGSGTDFTLKISRVEAEDVGVYYCMQSIQVLTFGGGTKVEIK | 25
* 199A7 (antibody, V domains shown, hybridoma mAb) VH: QVQLVESGGGVVQPGRSLRLSCAASGFTFSNYGMHWVRQAPGKGLEWVAIIWFDGSNKYYADSVKGRFTISRDNSKNTLFLQMSSLRAEDTAVYYCAREWLQFRYYYGMDVWGQGTTVTVSS VL: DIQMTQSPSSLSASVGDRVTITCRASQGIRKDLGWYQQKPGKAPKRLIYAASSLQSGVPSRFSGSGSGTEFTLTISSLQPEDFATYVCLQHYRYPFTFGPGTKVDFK | 1

# next binder below
Input line: Which % Change Compared to pH 7.4 + Calcium reading was recorded for the binder 68G6 (antibody, V domains shown, hybridoma mAb) VH: QVQLVQFGGEVKKPGSSVKVSCKASGYTFTGYYMHWVRQAPGQGLEWMGSIYRNSGGTNYAQKFQGRVTMTRDKSISTAYMEKSRIRSDDTAVYYCARAFYYGSGTYYNEFDYWGQGTLVTVSS VL: SYEVTQPPSVSVSPGQTASITCSGDKLGDKYTYWYQQKAGQSPFLVIYQDRKRPSGIPDRFSGSNSGNTATLTISGTQAMDAADFYCQAWDNSTAVFGGGTKLTVL ?
Output line: 22
